# assay method text: Therapeutic index, ratio of HD100 for hemolytic activity in human RBC to MIC against Staphylococcus aureus
# Assay type: toxicity
# assay setup: human red blood cells, read-out: TI
Square brackets hold non-standard residues; d marks the D form. Peptide text beside a SMILES is read from it.
readout label: selectivity ratio

{"columns": ["compound", "readout label", "result"],
 "data": [
  ["CC(C)C[C@@H]1NC(=O)[C@H](CCCCN)NC(=O)[C@H](C(C)C)NC(=O)[C@@H]2CCCN2C(=O)[C@@H](Cc2ccc(O)cc2)NC(=O)[C@H](CC(C)C)NC(=O)[C@H](CCCCN)NC(=O)[C@H](C(C)C)NC(=O)[C@H](CCCCN)NC(=O)[C@H](CC(C)C)NC(=O)[C@H](CCCCN)NC(=O)[C@@H]2CCCN2C(=O)[C@@H](Cc2ccc(O)cc2)NC(=O)[C@H](CCCCN)NC(=O)[C@H](C(C)C)NC(=O)[C@H](CCCCN)NC1=O (cyclo(VKLKVK[dY]PKLKVKL[dY]P))", "selectivity ratio", "> 25"]
]}
